Quick list: IC50 per entry.
Tested Target: human PD-L1 / Human PD-1 (Homo sapiens (Human), UniProt Q9NZQ7)
Sequence (Q9NZQ7 19-239): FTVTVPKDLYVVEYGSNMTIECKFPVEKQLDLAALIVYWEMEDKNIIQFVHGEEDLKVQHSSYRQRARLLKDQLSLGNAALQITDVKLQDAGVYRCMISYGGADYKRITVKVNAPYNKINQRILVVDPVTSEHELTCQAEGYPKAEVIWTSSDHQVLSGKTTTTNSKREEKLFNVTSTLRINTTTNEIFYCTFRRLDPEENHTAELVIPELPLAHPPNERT
Method Summary: Enzyme-Linked Immunosorbent Assay (ELISA), PD-1/PD-L1 binding
Run Parameters: plate-coated human PD-L1, biotinylated human PD-1

In the examples that follow, each entry is paired with its recorded IC50.
>>> reading("Cc1c(OCCCN2CCC(F)CC2)cccc1-c1cccc2c1CC[C@@H]2Oc1cc(OCc2cc(C#N)cc(C#N)c2)c(CN[C@H]2CCC(=O)NC2)cc1Cl")
"5 to 500 nM"
>>> reading("N#Cc1cncc(COc2cc(O[C@H]3CCc4c(-c5cccc(OCCCN6CC7(CC(F)C7)C6)c5Cl)cccc43)c(Cl)cc2CN2CCC3(C2)NC(=O)NC3=O)c1 (stereo partly shown)")
"5 to 500 nM"
>>> reading("CCOc1cc(O[C@@H]2c3cccc(-c4cccc(OCCCN5CC(F)C5)c4Cl)c3C[C@@H]2F)c(Cl)cc1CN[C@@](C)(CO)C(=O)O")
"5 to 500 nM"

Would you mind telling me what IC50 value was observed for `N#Cc1cncc(COc2cc(O[C@H]3CCc4c(-c5cccc(OCCCN6CCCCC6)c5Cl)cccc43)c(Cl)cc2CNC[C@@H]2CCC(=O)N2)c1` ?
< 5 nM

Can you look up the measured IC50 of Cc1c(OCCCN2C3CCC2CC(O)C3)cccc1-c1cccc2c1CC[C@@H]2Oc1cc(OCc2cncc(C#N)c2)c(CNCC2CCC(=O)N2)cc1Cl (stereo partly shown) for me?
< 5 nM

Quick check: IC50 of `C[C@@](CO)(NCc1cc(Cl)c(O[C@H]2CCc3c(-c4cccc(OCCCN)c4Cl)cccc32)cc1OCc1cncc(C#N)c1)C(=O)O` ?
< 5 nM
